PROTOCOL DESCRIPTION: The drug is tested on Z-027 corresponding to metagenome with ENA study accession number: PRJEB37062 and ENA sample accession number: ERS12561826 for biotransformation under anaerobic condition. The drug concentrations were measured over 9 timepoints collected between 0 and 24 hours of incubation by liquid-chromatography-coupled mass spectrometry (LC–MS); further: call rule not given here
COND: 2 µM
MEASUREMENT KIND: Bacterial Biotransformation

>>> experimental_result("CCc1oc2ccccc2c1C(=O)c1cc(Br)c(O)c(Br)c1")
"Compound NOT metabolized"
>>> experimental_result("CC(CCc1ccccc1)NCC(O)c1ccc(O)c(C(N)=O)c1 (stereo unspecified)")
"Compound metabolized"
>>> experimental_result("Clc1cccc(Cl)c1N=C1NCCN1")
"Compound NOT metabolized"
>>> experimental_result("COc1ccc(CN2CCNCC2)c(OC)c1OC.Cl.Cl [TRIMETAZIDINE DIHYDROCHLORIDE]")
"Compound NOT metabolized"
>>> experimental_result("CC(=O)Nc1ccc(OC(C)=O)cc1 [DIACETAMATE]")
"Compound metabolized"

Could you tell me which Bacterial Biotransformation is on file for COc1ccccc1OCCNCC(O)COc1cccc2[nH]c3ccccc3c12 (stereo unspecified) ? Compound NOT metabolized

// query Bacterial Biotransformation value for entry COc1ccc(Cc2nccc3cc(OC)c(OC)cc23)cc1OC Compound NOT metabolized

Give its Bacterial Biotransformation value. Item: CC12CC3CC(C)(C1)CC(N)(C3)C2 [MEMANTINE] Compound NOT metabolized

Request the reported Bacterial Biotransformation associated with CCN(CC)C(=O)C1(c2ccccc2)CC1CN (stereo unspecified) Compound NOT metabolized

Item under review: CCOc1ccccc1OCCN[C@H](C)Cc1ccc(OC)c(S(N)(=O)=O)c1.Cl [TAMSULOSIN HYDROCHLORIDE] . Reported Bacterial Biotransformation? Compound NOT metabolized

May I ask what Bacterial Biotransformation has been recorded for COC(=O)[C@H](c1ccccc1Cl)N1CCc2sccc2C1.O=S(=O)(O)O [CLOPIDOGREL BISULFATE] ? Compound metabolized

Would you kindly share the measured Bacterial Biotransformation for CC(C)(C)N.CCC[C@H](N[C@@H](C)C(=O)N1[C@H](C(=O)O)C[C@@H]2CCCC[C@@H]21)C(=O)OCC ? Compound NOT metabolized

// lookup Bacterial Biotransformation for CC(C)c1c(CN(C)C(C)Cc2ccccc2)n(C)n(-c2ccccc2)c1=O (stereo unspecified) Compound metabolized

What does the record list as Bacterial Biotransformation for O=C1N=C([O-])NC1(c1ccccc1)c1ccccc1.[Na+] [PHENYTOIN SODIUM] ? Compound NOT metabolized

Need Bacterial Biotransformation of CC(=O)O[C@]1(C(C)=O)CC[C@H]2[C@@H]3C=C(C)C4=CC(=O)CC[C@]4(C)[C@H]3CC[C@@]21C [MEGESTROL ACETATE] , thanks. Compound metabolized

// lookup Bacterial Biotransformation for CCOC(=O)C1=C[C@]2(CC)CCCN3CCc4c(n1c1ccccc41)[C@@H]32 Compound NOT metabolized
